- Species on record: Homo sapiens
- PROTOCOL DETAILS: Protein binding in human plasma by equilibrium dialysis method
- APPLIED CONDITIONS: read-out: PPB (converted)
MEASUREMENT LABEL: fraction unbound
Answers are plain numbers.

Task item: Form field: reported fraction unbound of `O=C(O)/C=C/c1ccc(NC(=O)C2(NC(=O)c3ccc4c(c3)nc(-c3ccccn3)n4C3CCCCC3)CCCC2)cc1`
Reply: 0.124
